Tested on: UACC-62 melanoma
ASSAY PROCEDURE: NCI tumour cell line growth inhibition, 48 h
Each entry below carries its reported TGI.

Consider the reported TGI for these compounds:
{"columns": ["COMPOUND", "TGI"],
 "data": [
  ["NC(=O)NCCCC(NC(=O)OCCCCCn1ccc(=O)[nH]c1=O)C(=O)O (stereo not drawn)", "> 100 µM"],
  ["CC1=CC2CC(C)C1(C)CCc1ccoc12 (stereo not drawn)", "> 100 µM"],
  ["O=C(O)C1SCCS1", "> 100 µM"],
  ["O=C(Nc1cccc(-n2ccc3c(NC(=O)c4ccccc4)nccc32)c1)c1cc(N2CCOCC2)cc(C(F)(F)F)c1", "> 44.2 µM"],
  ["CC1(C)[C@@H]2C[C@H]1C(Cc1cccc(C[C@H]3c4cc(-c5ccccn5)ncc4[C@H]4C[C@@H]3C4(C)C)c1)c1cc(-c3ccccn3)ncc12 (stereo partly drawn)", "> 21 µM"],
  ["CC(=O)Nc1ccc(-c2nnc(SCC(=O)Nc3ccccc3C)o2)cc1", "> 100 µM"],
  ["CN1CCCCC(C(O)(c2ccccc2)c2ccccc2)C1=O (stereo not drawn)", "> 100 µM"],
  ["O=[N+]([O-])c1ccc(N=Nc2c(O)[nH]c3ccccc23)cc1", "> 100 µM"]
]}

The recorded TGI for Cc1nnc2sc(N/N=C/c3ccccc3)nn12 is > 100 µM

The recorded TGI for COC1/C=C/C(C)C(C(C)C(OC)C(C)CCC(=O)C(C)C(C/C=C/N(C)C=O)OC)OC(=O)/C=C/C=C(\C)CC(OC)C(OC)C2=CC(=O)O[C@@H](C(C)C(OC)CC(OC)/C=C/C(C)C(O)C1)[C@H]2O (stereo partly drawn) is 0.314 µM

The recorded TGI for Cc1cc(N=C2C=C(Nc3cc(C)on3)C(=O)c3ccccc32)no1 is 38.4 µM

The recorded TGI for CN(CCN(C)C(=O)CCOS(C)(=O)=O)C(=O)CCOS(C)(=O)=O is > 100 µM

The recorded TGI for OCc1ccc(Oc2c3ccccc3nc3occc23)cc1 is 47.3 µM
